Origin of measurements: the supplement of paper PMC11061612

Tested on: TE-4 (Esophageal Squamous Cell Carcinoma)
Assay: combination Emax (second highest fraction inhibited in the dose matrix, 72 h); higher = more inhibition; extreme values may be limits of the assay
Parameter combination Emax: see the listing below.
Output: the number by itself.

# compound, targetOrTestSystem, combination Emax
measured = [
    ("COc1cccc(OCCCN)c1-c1cc(Nc2cnc(C#N)cn2)n[nH]1 [Prexasertib] + C=CCn1c(=O)c2cnc(Nc3ccc(N4CCN(C)CC4)cc3)nc2n1-c1cccc(C(C)(C)O)n1 [AZD1775] (first compound max 1 µM, partner max 1 µM)", "TE-4 (Esophageal Squamous Cell Carcinoma)", 0.813),
]

input: Read off the recorded combination Emax for COc1nnc2ccc(N3CCC(c4ccc(OCCN5CCN(C)C(=O)[C@H]5C)cc4)CC3)nn12 [AZD5153] + CCN(CCO)CCCOc1ccc2c(Nc3cc(CC(=O)Nc4cccc(F)c4)[nH]n3)ncnc2c1 [AZD2811] (first compound max 1 µM, 7x7, partner max 1 µM)
output: 0.467

###

System: HDLM-2 (Hodgkin's Lymphoma);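 further: after 72 h of two-drug dosing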
Assay: Bliss excess, mean over the matrix (fraction); higher = more synergy
quantityKind: Bliss excess
Output: the number by itself.

Some solved cases for reference:
# compound, measurement
measured = [
    ("C[C@@H](c1ccc2nccn2c1)n1nnc2ncc(-c3cnn(C)c3)nc21 [Savolitinib] + Cc1c2c(nn1C)CSCc1cc(n(C)n1)CSc1cc(c3ccccc3c1)OCCCc1c(C(=O)O)n(C)c3c-2c(Cl)ccc13 [AZD5991] (first compound max 1 µM, 7x7, partner max 1 µM)", -0.0099),
    ("N#Cc1cnc(Nc2cc(NC[C@H]3CNCCO3)c(C(F)(F)F)cn2)cn1 [SRA737] + C=CCn1c(=O)c2cnc(Nc3ccc(N4CCN(C)CC4)cc3)nc2n1-c1cccc(C(C)(C)O)n1 [AZD1775] (first compound max 10 µM, partner max 1 µM)", -0.0363),
    ("CC1(C)CCC(CN2CCN(c3ccc(C(=O)NS(=O)(=O)c4ccc(NCC5CCOCC5)c([N+](=O)[O-])c4)c(Oc4cnc5[nH]ccc5c4)c3)CC2)=C(c2ccc(Cl)cc2)C1 [Venetoclax] + Cc1cc2ncnn2cc1Nc1ncc2c(n1)n(C1CCOCC1)c(=O)n2C [AZD7648] (first compound max 1 µM, 7x7, partner max 10 µM)", 0.0551),
    ("Cc1cc2ncnn2cc1Nc1ncc2c(n1)n(C1CCOCC1)c(=O)n2C [AZD7648] + O=C(c1cc(Cc2n[nH]c(=O)c3ccccc23)ccc1F)N1CCN(C(=O)C2CC2)CC1 [Olaparib] (first compound max 10 µM, 7x7, partner max 10 µM)", -0.0558),
    ("CC1(C)CCC(CN2CCN(c3ccc(C(=O)NS(=O)(=O)c4ccc(NCC5CCOCC5)c([N+](=O)[O-])c4)c(Oc4cnc5[nH]ccc5c4)c3)CC2)=C(c2ccc(Cl)cc2)C1 [Venetoclax] + CN(C)CCCOc1ccc(-c2ccc3ncc4c(c3c2)n(C2CCOCC2)c(=O)n4C)cn1 [AZD0156] (first compound max 1 µM, 7x7, partner max 1 µM)", -0.0015),
    ("C[C@@H](Nc1cc(F)cc(F)c1)c1cc(C(=O)N(C)C)cc2c(=O)cc(N3CCOCC3)oc12 [AZD8186] + CC(=O)c1c(C)c2cnc(Nc3ccc(N4CCNCC4)cn3)nc2n(C2CCCC2)c1=O [Palbociclib] (first compound max 10 µM, 7x7, partner max 10 µM)", 0.0121),
    ("Cc1c2c(nn1C)CSCc1cc(n(C)n1)CSc1cc(c3ccccc3c1)OCCCc1c(C(=O)O)n(C)c3c-2c(Cl)ccc13 [AZD5991] + C[C@@H](Nc1cc(F)cc(F)c1)c1cc(C(=O)N(C)C)cc2c(=O)cc(N3CCOCC3)oc12 [AZD8186] (first compound max 1 µM, 7x7, partner max 3 µM)", -0.0351),
    ("Cc1c2c(nn1C)CSCc1cc(n(C)n1)CSc1cc(c3ccccc3c1)OCCCc1c(C(=O)O)n(C)c3c-2c(Cl)ccc13 [AZD5991] + CC(=O)O[C@H]1C(=O)[C@@]2(C)[C@H]([C@H](OC(=O)c3ccccc3)[C@]3(O)C[C@H](OC(=O)[C@H](O)[C@@H](NC(=O)c4ccccc4)c4ccccc4)C(C)=C1C3(C)C)[C@]1(OC(C)=O)CO[C@@H]1C[C@@H]2O [Paclitaxel] (first compound max 1 µM, 7x7, partner max 3 µM)", 0.0128),
]

input: Fill in: Bliss excess on HDLM-2 (Hodgkin's Lymphoma), entry Cc1c2c(nn1C)CSCc1cc(n(C)n1)CSc1cc(c3ccccc3c1)OCCCc1c(C(=O)O)n(C)c3c-2c(Cl)ccc13 [AZD5991] + Nc1ccn([C@@H]2O[C@H](CO)[C@@H](O)C2(F)F)c(=O)n1 [Gemcitabine] (first compound max 1 µM, 7x7, partner max 0.3 µM)
output: 0.0014

input: Fill in: Bliss excess on HDLM-2 (Hodgkin's Lymphoma), entry Cc1cc2ncnn2cc1Nc1ncc2c(n1)n(C1CCOCC1)c(=O)n2C [AZD7648] + COc1cc([C@@H]2c3cc4c(cc3[C@@H](O[C@@H]3O[C@@H]5CO[C@@H](C)O[C@H]5[C@H](O)[C@H]3O)[C@H]3COC(=O)[C@H]23)OCO4)cc(OC)c1O [Etoposide] (first compound max 10 µM, 7x7, partner max 10 µM)
output: -0.0015

input: Fill in: Bliss excess on HDLM-2 (Hodgkin's Lymphoma), entry COc1nnc2ccc(N3CCC(c4ccc(OCCN5CCN(C)C(=O)[C@H]5C)cc4)CC3)nn12 [AZD5153] + C[C@@H]1COCCN1C2=NC(=NC(=C2)C3(CC3)[S@](=N)(=O)C)C4=C5C=CNC5=NC=C4 [AZD6738] (first compound max 1 µM, 7x7, partner max 10 µM)
output: -0.0567

input: Fill in: Bliss excess on HDLM-2 (Hodgkin's Lymphoma), entry CN(CCO)CC[C@H](CSc1ccccc1)Nc1ccc(S(=O)(=O)NC(=O)c2ccc(N3CCC([C@@H](O)c4ccccc4-c4ccc(Cl)cc4)CC3)cc2)cc1S(=O)(=O)C(F)(F)F [AZD4320] + C[C@@H]1COCCN1C2=NC(=NC(=C2)C3(CC3)[S@](=N)(=O)C)C4=C5C=CNC5=NC=C4 [AZD6738] (first compound max 1 µM, 7x7, partner max 10 µM)
output: -0.0171

input: Fill in: Bliss excess on HDLM-2 (Hodgkin's Lymphoma), entry CC(=O)c1c(C)c2cnc(Nc3ccc(N4CCNCC4)cn3)nc2n(C2CCCC2)c1=O [Palbociclib] + Cn1cnc2c(F)c(Nc3ccc(Br)cc3Cl)c(C(=O)NOCCO)cc21 [Selumetinib] (first compound max 10 µM, 7x7, partner max 10 µM)
output: -0.0362
